# SYSTEM UNDER TEST: Left-right determination factor 2 (Homo sapiens) (UniProt O00292)
# Sequence (O00292 whole entry, looked up): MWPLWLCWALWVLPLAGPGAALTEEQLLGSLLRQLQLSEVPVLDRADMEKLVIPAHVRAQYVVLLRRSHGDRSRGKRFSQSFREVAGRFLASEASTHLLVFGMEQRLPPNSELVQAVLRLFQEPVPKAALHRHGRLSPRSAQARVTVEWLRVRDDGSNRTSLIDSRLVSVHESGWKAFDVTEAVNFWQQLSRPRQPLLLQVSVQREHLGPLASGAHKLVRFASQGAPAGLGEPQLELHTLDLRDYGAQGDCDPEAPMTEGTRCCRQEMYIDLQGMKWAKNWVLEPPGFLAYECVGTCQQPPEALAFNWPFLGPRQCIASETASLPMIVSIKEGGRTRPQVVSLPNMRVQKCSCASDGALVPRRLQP
# METHOD NOTES: LEFTY2 binders on small-molecule microarrays, primary screen, biochemical, small-molecule microarray, 635 nm fluorescence scan (AID 1110)
# CONDITION LABEL: LEFTY2 binding, higher = more signal
The label depends only on composite z-score: 1 if it is at least 0.1, 0 if it is smaller.

INSERT INTO assay_data (compound, classification) VALUES
  ('C=CCC(OC(C)=O)[C@@H]1[C@@H](N(Cc2ccc(-c3cccc(C(F)(F)F)c3)o2)C(=O)c2ccc(C)cc2)c2cc(OCCCO)ccc2N1C(=O)Cc1ccc2ccccc2c1 (stereo partly drawn)', 0),
  ('COC(=O)C(CC#Cc1ccc2c(c1)[C@]1(C(=O)N2)[C@H](c2ccc(OCCO)cc2)N2[C@H](c3ccccc3)[C@H](c3ccccc3)OC(=O)[C@H]2[C@@H]1C(=O)N1CCc2cc(OC)c(OC)cc2C1)C(=O)OC', 1),
  ('CN(C)CCCCCCNC(=O)[C@@H]1C[C@@H]2C(=O)N[C@@H](Cc3ccccc3)C(=O)N2[C@@H]1c1ccc(O)cc1', 1),
  ('Oc1ccc2cc[n+](Cc3sc4ccccc4c3Cl)cc2c1', 0),
  ('CN1C(=O)C2C=CC(C(O)c3ccc([N+](=O)[O-])cc3)N(N3CCCCC3)C2C1=O (stereo not drawn)', 1),
  ('COCCCNC(=O)[C@]1(CCC(=O)OC(C)(C)C)N=C(c2ccc(OCCCO)cc2)O[C@@H]1c1ccccc1CN=[N+]=[N-]', 1),
  ('CN(C)CCCC[C@@H]1NC(=O)[C@@H]2C[C@H](C(=O)NCCCCCCN)[C@H](c3cccc(OCCO)c3)N2C1=O', 1);
